Measured values drawn from patent US10239869B2 for this set.

# pIC50 per entry
- Study system: Nav 1.7 (Homo sapiens (Human))
- Sequence (Q15858 whole entry): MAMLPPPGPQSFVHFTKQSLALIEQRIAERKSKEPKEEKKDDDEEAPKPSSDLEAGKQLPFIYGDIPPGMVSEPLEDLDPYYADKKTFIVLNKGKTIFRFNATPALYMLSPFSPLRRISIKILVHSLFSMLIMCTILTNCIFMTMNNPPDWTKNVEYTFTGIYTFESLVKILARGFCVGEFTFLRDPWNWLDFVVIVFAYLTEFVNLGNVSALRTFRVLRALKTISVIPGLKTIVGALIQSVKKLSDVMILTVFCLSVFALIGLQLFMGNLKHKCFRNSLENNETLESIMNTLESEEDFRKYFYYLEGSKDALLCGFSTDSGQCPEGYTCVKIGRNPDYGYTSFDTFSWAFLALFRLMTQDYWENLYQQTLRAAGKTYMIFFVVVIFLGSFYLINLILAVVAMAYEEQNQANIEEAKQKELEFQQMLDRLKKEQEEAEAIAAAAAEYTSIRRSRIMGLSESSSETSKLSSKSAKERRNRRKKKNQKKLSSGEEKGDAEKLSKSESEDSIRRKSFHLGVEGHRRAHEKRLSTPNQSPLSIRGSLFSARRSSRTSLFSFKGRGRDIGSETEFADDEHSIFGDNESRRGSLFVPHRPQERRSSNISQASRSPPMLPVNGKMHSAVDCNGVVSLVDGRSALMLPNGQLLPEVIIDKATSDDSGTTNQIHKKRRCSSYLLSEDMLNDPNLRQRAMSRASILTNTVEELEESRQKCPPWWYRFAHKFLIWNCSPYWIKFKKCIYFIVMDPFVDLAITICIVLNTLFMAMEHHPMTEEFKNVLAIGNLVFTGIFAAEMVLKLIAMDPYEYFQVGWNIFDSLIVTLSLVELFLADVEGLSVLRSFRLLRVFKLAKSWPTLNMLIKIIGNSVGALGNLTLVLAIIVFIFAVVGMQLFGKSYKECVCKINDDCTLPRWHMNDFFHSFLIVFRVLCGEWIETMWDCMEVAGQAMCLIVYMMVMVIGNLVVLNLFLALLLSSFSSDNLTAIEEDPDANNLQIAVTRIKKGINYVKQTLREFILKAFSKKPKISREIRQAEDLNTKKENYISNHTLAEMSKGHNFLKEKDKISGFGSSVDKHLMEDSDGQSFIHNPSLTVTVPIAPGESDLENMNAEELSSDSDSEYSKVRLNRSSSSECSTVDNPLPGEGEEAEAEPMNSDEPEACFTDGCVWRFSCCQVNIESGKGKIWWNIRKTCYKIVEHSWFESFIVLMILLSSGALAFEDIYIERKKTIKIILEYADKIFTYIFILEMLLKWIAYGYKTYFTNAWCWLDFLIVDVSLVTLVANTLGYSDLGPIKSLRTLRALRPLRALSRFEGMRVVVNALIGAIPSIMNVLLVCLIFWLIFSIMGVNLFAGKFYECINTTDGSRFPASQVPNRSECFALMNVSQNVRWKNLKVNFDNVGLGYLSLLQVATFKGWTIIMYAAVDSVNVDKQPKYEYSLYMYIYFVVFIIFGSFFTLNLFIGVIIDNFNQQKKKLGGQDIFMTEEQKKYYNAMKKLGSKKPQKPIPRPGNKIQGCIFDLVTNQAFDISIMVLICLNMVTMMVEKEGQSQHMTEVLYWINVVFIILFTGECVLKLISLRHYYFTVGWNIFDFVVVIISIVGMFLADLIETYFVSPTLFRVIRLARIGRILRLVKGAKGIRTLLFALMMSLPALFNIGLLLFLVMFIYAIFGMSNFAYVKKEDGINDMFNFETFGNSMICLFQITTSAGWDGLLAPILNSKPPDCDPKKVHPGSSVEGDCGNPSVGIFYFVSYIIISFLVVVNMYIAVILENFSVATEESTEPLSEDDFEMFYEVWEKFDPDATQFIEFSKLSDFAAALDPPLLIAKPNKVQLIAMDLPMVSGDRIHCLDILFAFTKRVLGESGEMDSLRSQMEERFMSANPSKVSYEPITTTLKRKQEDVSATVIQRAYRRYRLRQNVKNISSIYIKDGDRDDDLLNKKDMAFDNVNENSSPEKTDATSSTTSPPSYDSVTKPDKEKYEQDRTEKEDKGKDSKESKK
- Experimental details: Inhibition of sodium channels, Red Membrane Potential Dye FLIPR assay, veratridine depolarization
- Format: cell-based
- Conditions: HEK-293 cells overexpressing the channel; read-out: Nav1.7 IC50
Reminder that pIC50 means the negative base-10 logarithm of the concentration expressed in mol/L.

The cases that follow already have their pIC50 on record.
| Compound | Study system | pIC50 |
| --- | --- | --- |
| O=S(=O)(Nc1cccnn1)c1ccc2c(c1)OCC[C@@H]2c1ccc(C(F)(F)F)cc1-c1ccc(F)nc1 | Nav 1.7 (Homo sapiens (Human)) | 9.70 |
| O=S(=O)(Nc1ncc(F)cn1)c1ccc2c(c1)OCC[C@@H]2c1ccc(C(F)(F)F)cc1CCCF (racemic) | Nav 1.7 (Homo sapiens (Human)) | 8.00 |
| CC(C)Oc1ccc(-c2cc(C(F)(F)F)ccc2[C@@H]2CCOc3cc(S(=O)(=O)Nc4ncc(F)cn4)ccc32)cn1 | Nav 1.7 (Homo sapiens (Human)) | 5.97 |

Read the next record carefully.
**Query** Field request: pIC50 | item: O=C1OCCN1c1cc(C(F)(F)F)ccc1[C@H]1CCOc2cc(S(=O)(=O)Nc3ncc(F)cn3)ccc21 (racemic)
**Result** 7.34
